// data source = ChEMBL document CHEMBL2157864

Papp at 4 h listing for selected molecules.
assay: Permeability of the compound after 4 hrs by PAMPA assay; format: ADME; details: read-out: permeability
Reply with a number, then the unit it belongs to.

Worked set:
CC(C)(C)/[N+]([O-])=C/c1ccccc1O ... 37.5 ×10⁻⁶ cm/s
CCn1cc(C(=O)O)c(=O)c2cc(F)c(N3CCNCC3)nc21 [ENOXACIN] ... 1.7 ×10⁻⁶ cm/s

In: Please report Papp at 4 h for the following molecule: CC(C)(C)/[N+]([O-])=C/c1ccc(O)cc1
Out: 0.2 ×10⁻⁶ cm/s

In: Please report Papp at 4 h for the following molecule: CC(C)(C)c1cc(/C=[N+](\[O-])C(C)(C)C)cc(C(C)(C)C)c1O
Out: 10.2 ×10⁻⁶ cm/s

In: Please report Papp at 4 h for the following molecule: CN1C(C(=O)Nc2ccccn2)=C(O)c2ccccc2S1(=O)=O [PIROXICAM]
Out: 1.6 ×10⁻⁶ cm/s

In: Please report Papp at 4 h for the following molecule: CNCCCN1c2ccccc2CCc2ccccc21 [DESIPRAMINE]
Out: 14.4 ×10⁻⁶ cm/s
